The measured values listed here are drawn from patent US5605929A.

tgt: 5α-Reductase of Rat Liver Microsomes (Rattus norvegicus)
Sequence (P24008 1-259): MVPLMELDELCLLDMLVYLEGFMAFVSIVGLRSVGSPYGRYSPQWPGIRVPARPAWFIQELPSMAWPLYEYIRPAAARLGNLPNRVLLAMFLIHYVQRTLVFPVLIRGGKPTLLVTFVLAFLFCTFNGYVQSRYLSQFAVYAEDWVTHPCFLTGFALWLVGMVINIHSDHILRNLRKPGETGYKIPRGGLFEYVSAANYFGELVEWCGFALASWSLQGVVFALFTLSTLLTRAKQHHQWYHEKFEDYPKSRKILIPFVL
particulars: 0.2 mM
property label: inhibitory activity in [^3 H]4-MA binding assay

Below, 5 compounds whose answers are already recorded.
CCCCC[C@H](O)/C=C/C1=C(CCCCCCC(=O)O)C(=O)CC1 | somewhat active
CCCCC[C@H](O)/C=C/[C@H]1C=CC(=O)[C@@H]1C/C=C\CCCC(=O)O | somewhat active
CCCCC[C@H](O)/C=C/[C@H]1[C@H](O)CC(=O)[C@@H]1CCCCCCC(=O)O [prostaglandin E1] | somewhat active
CCCCC[C@H](O)/C=C/[C@H]1C(=O)C[C@H](O)[C@@H]1C/C=C\CCCC(=O)O [prostaglandin D2] | somewhat active
CCCCC[C@H](O)/C=C/[C@H]1C=CC(=O)[C@@H]1CCCCCCC(=O)O | somewhat active

Give measured inhibitory activity in [^3 H]4-MA binding assay for every item shown.
1. CCCCC[C@H](O)/C=C/[C@@H]1[C@@H](CCCCCCC(=O)O)[C@@H](O)C[C@H]1O
2. CCCCC[C@H](O)/C=C/C1=C(C/C=C\CCCC(=O)O)C(=O)CC1

1: somewhat active; 2: somewhat active

###

tgt: UniProt P24008
protocol text: biochemical
particulars: apparent Ki values for [^3 H]4-MA, γ-LA 5 μM
property label: pKi
Answers are plain numbers, as −log10 of the molar value.

Quick note, pKi for CCCCC/C=C\C/C=C\C/C=C\CCCCC(=O)O [γ-Linolenic acid, γ-linolenic acid] landed at 7.70

###

tgt: 5α-Reductase of Rat Liver Microsomes (Rattus norvegicus, UniProt P24008)
protocol text: biochemical
particulars: read-out: % Inhibition of [^3 H]4-MA binding, Table 2, 200 μM
property label: inhibition at 200 µM (%)
Give bare numbers, in %.

Below, 3 compounds whose answers are already recorded.
CC/C=C\C/C=C\C/C=C\C/C=C\CCCCC(=O)O | 88
CCCCCCCC/C=C\CCCCCCCCCCCCC(=O)O | 36
CCCC/C=C\CCCCCCCCCCCC(=O)O | 57

Field: next compound
Response field inhibition at 200 µM (5α-Reductase of Rat Liver Microsomes (Rattus norvegicus, UniProt P24008)) for item CC/C=C\C/C=C\C/C=C\C/C=C\C/C=C\C/C=C\CCC(=O)O [Docosahexaenoic acid, cis-4,7,10,13,16,19-docosahexaenoic acid] : 86

###

Give measured inhibition at 3 µM for each item. Keep answers brief.
tgt: human 5α-reductase isozyme type 1 (Homo sapiens)
Construct: expressed in transfected cells; host or cells: Rat-1A cells infected with pMV7 retrovirus; microsomes of these cells
protocol text: [3H]4-MA binding, human type 1 isozyme expressed in Rat-1A cells
particulars: read-out: % Inhibition of [^3 H]4-MA binding
One number for each entry, in %.

Below, 2 molecules whose answers are already recorded.
O=C(O[C@@H]1Cc2c(O)cc(O)cc2O[C@@H]1c1ccc(O)c(O)c1)c1cc(O)c(O)c(O)c1 [ECG, (-)Epicatechin-3-gallate] | 47
O=C(O[C@@H]1Cc2c(O)cc(O)cc2O[C@@H]1c1cc(O)c(O)c(O)c1)c1cc(O)c(O)c(O)c1 [EGCG, (-)Epigallocatechin-3-gallate] | 47

Field: next molecule
Quick note, inhibition at 3 µM for `CCCCC/C=C\C/C=C\C/C=C\CCCCC(=O)O` landed at 54

###

tgt: human 5α-reductase isozyme type 1 (Homo sapiens, UniProt P18405)
Construct: expressed in transfected cells; host or cells: Rat-1A cells infected with pMV7 retrovirus; microsomes of these cells
Sequence (P18405 whole entry): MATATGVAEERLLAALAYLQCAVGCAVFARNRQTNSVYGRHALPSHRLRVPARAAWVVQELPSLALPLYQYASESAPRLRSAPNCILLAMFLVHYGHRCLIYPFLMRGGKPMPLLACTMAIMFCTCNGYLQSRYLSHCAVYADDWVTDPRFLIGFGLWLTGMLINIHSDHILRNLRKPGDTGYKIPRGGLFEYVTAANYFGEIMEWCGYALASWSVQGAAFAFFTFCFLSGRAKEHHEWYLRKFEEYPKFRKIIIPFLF
protocol text: 4-[14C]testosterone reduction, human type 1 isozyme
Assay type: biochemical
particulars: read-out: % Inhibition of 5α-reduction
Give measured inhibition at 1 µM for each item. Keep answers brief.
One number for each entry, in %.

Below, 2 molecules whose answers are already recorded.
O=C(O[C@@H]1Cc2c(O)cc(O)cc2O[C@@H]1c1ccc(O)c(O)c1)c1cc(O)c(O)c(O)c1 [ECG, (-)Epicatechin-3-gallate] | 20
CCCCC/C=C\C/C=C\C/C=C\CCCCC(=O)O | 31

Response field inhibition at 1 µM (human 5α-reductase isozyme type 1 (Homo sapiens, UniProt P18405)) for item O=C(O[C@@H]1Cc2c(O)cc(O)cc2O[C@@H]1c1cc(O)c(O)c(O)c1)c1cc(O)c(O)c(O)c1 [EGCG, (-)Epigallocatechin-3-gallate] : 22

###

Give measured inhibition at 40 µM for each item. Keep answers brief.
tgt: 5α-Reductase of Rat Liver Microsomes (Rattus norvegicus)
protocol text: biochemical
particulars: read-out: % Inhibition of [^3 H]4-MA binding, Table 1, 40 μM
One number for each entry, in %.

Give measured inhibition at 40 µM for every item shown.
1. CC/C=C\C/C=C\C/C=C\CCCCCCCC(=O)O
2. CCCCC/C=C\C/C=C\C/C=C\C/C=C\CCCC(=O)O

[27, 30]

Give measured inhibition at 40 µM for every item shown.
1. CC/C=C\C/C=C\C/C=C\C/C=C\CCCCC(=O)O
2. CC/C=C\C/C=C\C/C=C\C/C=C\C/C=C\C/C=C\CCC(=O)O [Docosahexaenoic acid, cis-4,7,10,13,16,19-docosahexaenoic acid]
3. CCCCC/C=C\C/C=C\CCCCCCCC(=O)O

[40, 27, 12]

Give measured inhibition at 40 µM for every item shown.
1. CCCCCCCC/C=C\CCCCCCCC(=O)O
2. CCCCCC/C=C\CCCCCCCC(=O)O

[16, 16]

###

tgt: 5α-Reductase of Rat Liver Microsomes (Rattus norvegicus)
protocol text: biochemical
particulars: read-out: % Inhibition of [^3 H]4-MA binding, Table 1, 200 μM
Give measured inhibition at 200 µM for each item. Keep answers brief.
One number for each entry, in %.

Below, 5 compounds whose answers are already recorded.
CCCCC/C=C/C/C=C/CCCCCCCC(=O)O | 19
CCCCCC/C=C\CCCCCCCC(=O)O | 73
CCCCC/C=C\C/C=C\CCCCCCCC(=O)O | 86
CCCCC/C=C\C/C=C\C/C=C\C/C=C\CCCC(=O)O | 88
CCCCCCCCCCC/C=C\CCCCC(=O)O | 52

Field: next compound
Quick note, inhibition at 200 µM for `CCCCCCCC/C=C\CCCCCCCC(=O)O` landed at 63

###

tgt: human 5α-reductase isozyme type 1 (Homo sapiens)
property label: IC50

Quick note, IC50 for O=C(O[C@@H]1Cc2c(O)cc(O)cc2O[C@@H]1c1ccc(O)c(O)c1)c1cc(O)c(O)c(O)c1 [ECG, (-)Epicatechin-3-gallate] landed at ~10 µM

###

tgt: human 5α-reductase isozyme type 2 (Homo sapiens, UniProt P31213)
Construct: expressed in transfected cells; host or cells: Rat-1A cells infected with pMV7 retrovirus; microsomes of these cells
Sequence (P31213 whole entry): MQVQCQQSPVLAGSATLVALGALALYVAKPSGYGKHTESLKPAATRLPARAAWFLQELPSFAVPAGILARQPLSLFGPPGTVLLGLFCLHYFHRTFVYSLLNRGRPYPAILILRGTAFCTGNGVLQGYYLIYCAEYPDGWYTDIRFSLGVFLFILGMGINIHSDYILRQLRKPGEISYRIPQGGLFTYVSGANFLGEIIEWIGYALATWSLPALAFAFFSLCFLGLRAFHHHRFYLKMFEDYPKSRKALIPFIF
protocol text: 4-[14C]testosterone reduction, human type 2 isozyme
Format: biochemical
particulars: read-out: % Inhibition of 5α-reduction
Description: The cDNAs for the human type 1 and 2 5α-reductases were isolated from human prostate λZAP II™ cDNA libraries using the published sequence of the 5α-reductases, PCR™ and standard library screening techniques (Sambrook et al., 1989). The type 1 and 2 cDNAs correspond to nucleotides 31-870 and 28-829, respectively, of the published sequences for these 5α-reductases (Anderson and Russell, 1990; Anderson et al., 1991). […]
property label: inhibition at 10 µM

Oc1cc(O)c2c(c1)O[C@H](c1cc(O)c(O)c(O)c1)[C@H](O)C2 [EGC, (-)Epigallocatechin] | < 10%

Give measured inhibition at 10 µM for every item shown.
1. O=C(O[C@@H]1Cc2c(O)cc(O)cc2O[C@@H]1c1cc(O)c(O)c(O)c1)c1cc(O)c(O)c(O)c1 [EGCG, (-)Epigallocatechin-3-gallate]
2. O=C(O[C@@H]1Cc2c(O)cc(O)cc2O[C@@H]1c1ccc(O)c(O)c1)c1cc(O)c(O)c(O)c1 [ECG, (-)Epicatechin-3-gallate]
3. CCCCC/C=C\C/C=C\C/C=C\CCCCC(=O)O

1: < 10%; 2: < 10%; 3: 60%

###

tgt: 5α-Reductase of Rat Liver Microsomes (Rattus norvegicus, UniProt P24008)
protocol text: biochemical
particulars: read-out: % Inhibition of [^3 H]4-MA binding, Table 2, 10 μM
Give measured inhibition at 10 µM for each item. Keep answers brief.

Below, 7 molecules whose answers are already recorded.
CCCCCCCC/C=C\CCCCCCCCCCCCC(=O)O | < 10%
CCCCCC/C=C\CCCCCCCCCC(=O)O | 14%
CCCCCCCC/C=C\CCCCCCCCC(=O)O [10-cis-Nonadecenoic Acid, 10-nonadecenoic acid] | < 10%
CCCCC/C=C\C/C=C\C/C=C\CCCCCO | < 10%
CCCCCCCCCCCCCC/C=C\CCCC(=O)O | < 10%
CCCCC/C=C\C/C=C\C/C=C\CCCCCOC(C)=O [γ-Linolenyl Acetate, γ-linolenyl acetate] | < 10%
CCCCC/C=C\C/C=C\C/C=C\C/C=C\CCCC(=O)O | < 10%

Field: next molecule
Quick note, inhibition at 10 µM for CCCCCC/C=C\CCCCCCCCCCC(=O)O [12-cis-Nonadecenoic Acid, 12-nonadecenoic acid] landed at < 10%
